Biological target: T1, hSEMA4D ECD-His (His-tagged human SEMA4D protein extracellular domain, Met22-Arg734) (human, UniProt Q92854 22-734)
T1 construct: Expressed in CHO-S cells, purified on Ni column; also called protein immunogen; immunogen A; not shown: His tag of the pCP vector
T1 sequence: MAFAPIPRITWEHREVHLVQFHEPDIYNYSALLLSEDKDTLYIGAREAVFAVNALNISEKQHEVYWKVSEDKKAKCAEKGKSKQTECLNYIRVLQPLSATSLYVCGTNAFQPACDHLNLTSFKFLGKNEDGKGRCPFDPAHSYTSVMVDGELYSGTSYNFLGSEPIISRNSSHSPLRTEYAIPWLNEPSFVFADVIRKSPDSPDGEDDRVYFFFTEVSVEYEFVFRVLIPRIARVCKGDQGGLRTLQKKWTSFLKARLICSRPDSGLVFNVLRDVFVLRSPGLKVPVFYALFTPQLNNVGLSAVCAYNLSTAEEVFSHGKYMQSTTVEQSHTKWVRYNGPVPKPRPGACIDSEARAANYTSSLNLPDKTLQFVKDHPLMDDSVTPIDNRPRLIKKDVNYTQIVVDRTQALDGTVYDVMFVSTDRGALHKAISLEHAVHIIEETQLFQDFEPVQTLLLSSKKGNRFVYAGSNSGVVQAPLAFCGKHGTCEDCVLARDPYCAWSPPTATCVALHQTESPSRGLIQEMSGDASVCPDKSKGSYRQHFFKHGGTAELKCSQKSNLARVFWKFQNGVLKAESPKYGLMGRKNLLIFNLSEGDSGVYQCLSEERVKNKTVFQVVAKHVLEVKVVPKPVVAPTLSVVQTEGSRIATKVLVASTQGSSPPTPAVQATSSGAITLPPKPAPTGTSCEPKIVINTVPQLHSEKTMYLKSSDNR
Test: ELISA, coated hSEMA4D ECD-His; Ab 0.000085 nM
Task for the reader: assign each of the following binders its reported OD450 nm.
Lab note: write the figure by itself, no unit.

Q: If you can, please state the reported OD450 nm value of 37C4F7 (antibody, V domains shown, Mouse monoclonal antibody purified from hybridoma supernatant on protein A) VH: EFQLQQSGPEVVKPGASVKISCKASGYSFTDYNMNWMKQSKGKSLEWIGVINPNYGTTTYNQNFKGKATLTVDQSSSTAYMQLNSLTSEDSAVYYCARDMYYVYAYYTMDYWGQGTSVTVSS VL: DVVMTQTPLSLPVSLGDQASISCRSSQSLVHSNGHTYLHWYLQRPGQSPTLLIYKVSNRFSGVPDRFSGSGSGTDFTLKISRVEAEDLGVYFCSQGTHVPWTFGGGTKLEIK .
Result: 0.0661

Q: What measured OD450 nm goes with 38H2E3 (antibody, V domains shown, Mouse monoclonal antibody purified from hybridoma supernatant on protein A) VH: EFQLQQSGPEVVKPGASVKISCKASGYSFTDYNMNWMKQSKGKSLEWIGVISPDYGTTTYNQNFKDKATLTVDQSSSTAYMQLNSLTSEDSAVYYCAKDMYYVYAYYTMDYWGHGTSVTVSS VL: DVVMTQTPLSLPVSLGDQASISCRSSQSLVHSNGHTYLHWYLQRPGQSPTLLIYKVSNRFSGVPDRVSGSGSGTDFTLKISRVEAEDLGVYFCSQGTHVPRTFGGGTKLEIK ?
Result: 0.0635

Q: For the binder 42B7G2 (antibody, V domains shown, Mouse monoclonal antibody purified from hybridoma supernatant on protein A) VH: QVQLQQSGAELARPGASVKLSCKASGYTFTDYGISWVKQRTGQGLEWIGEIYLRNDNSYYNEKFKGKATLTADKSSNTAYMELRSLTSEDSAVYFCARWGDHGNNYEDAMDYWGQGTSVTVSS VL: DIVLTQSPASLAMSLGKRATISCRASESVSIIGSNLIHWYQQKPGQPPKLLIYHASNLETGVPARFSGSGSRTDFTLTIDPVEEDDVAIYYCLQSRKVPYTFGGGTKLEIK , what OD450 nm is on record?
Result: 0.0753

Q: For the binder 37F11F9 (antibody, V domains shown, Mouse monoclonal antibody purified from hybridoma supernatant on protein A) VH: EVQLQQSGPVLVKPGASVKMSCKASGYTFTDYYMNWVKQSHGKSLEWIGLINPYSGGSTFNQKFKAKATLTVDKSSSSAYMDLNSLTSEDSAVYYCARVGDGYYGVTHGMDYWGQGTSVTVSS VL: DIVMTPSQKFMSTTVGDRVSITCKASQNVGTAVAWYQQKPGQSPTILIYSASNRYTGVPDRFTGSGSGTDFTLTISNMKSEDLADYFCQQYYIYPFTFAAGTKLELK , what OD450 nm is on record?
Result: 0.0658

# credit: patent US20220073608A1
